experiment: protein stability index of a GFP-peptide fusion (GPS, HEK-293T) (PSI 1-6); higher = more stable; settings: treatment: DMSO; c terminus: a fixed tail appended;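 note: 24-mer peptide tiles fused after GFP, lentivirally expressed, FACS-sorted into six equal bins by GFP/DsRed ratio, decoded by Illumina sequencing, PSI is the read-weighted mean bin number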
endpointLabel: protein stability index
Form: value (number only, do not type unit).

Use these answered entries as a reference point.
itemSequence: IHQESGKAPSTDDATWAAVAACTK [C10orf62]
endpointLabel: protein stability index
valueMeasured: 4.56
//
itemSequence: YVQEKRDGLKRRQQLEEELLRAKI [RAD54B]
endpointLabel: protein stability index
valueMeasured: 2.71
//
itemSequence: AGRPRAERRPRRVEAERPHSLIGV [FAM189A2]
endpointLabel: protein stability index
valueMeasured: 4.05
//
itemSequence: KAAQQGKQEENDVVEKLNLFLDLL [SNX8]
endpointLabel: protein stability index
valueMeasured: 2.45
//
itemSequence: TPPETKPDPPVNFLRQKVLSLPLP [PCMTD2]
endpointLabel: protein stability index
valueMeasured: 3.74
//
itemSequence: GGRKGRTLLLQGHHDKVQSLCYLQ [WDFY1]
endpointLabel: protein stability index
valueMeasured: 2.54
//
itemSequence: ALLDSLPPPVESELALFQMSVLWL [KLHL14]
endpointLabel: protein stability index
valueMeasured: 2.45
//
itemSequence: FLELAVGQRIRRGSIGVWHYICPR [SLC6A17]
endpointLabel: protein stability index
valueMeasured: 2.99

Need protein stability index of YWTKYYDFKNPIIEKYLRRQLTKP [OAS1] , thanks.
1.94

Need protein stability index of KEYTTRTQAPPSVILGVTNPFFAK [DENND6A] , thanks.
2.81

Need protein stability index of PDSMFLAMLAVVSCASIGSGEPPT [CDK11A] , thanks.
2.74

Need protein stability index of YLKSCRRMKKNGMEMTRPTPPHLT [NOL4L] , thanks.
2.89

Need protein stability index of KRFQLTKLPPYLIFCIKRFTKNNF [USP39] , thanks.
2
